B1: SMG5 (parent)
chain: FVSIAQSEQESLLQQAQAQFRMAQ

- Variants of: B1
- method description: protein stability index of a GFP-peptide fusion (GPS, HEK-293T) (PSI 1-6); higher = more stable;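 further: lentivirally expressed fusions sorted by FACS into six bins by GFP to DsRed ratio, PSI derived from sequencing read proportions per bin multiplied by bin number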
- particulars: c terminus: a fixed tail appended
protein stability index for assorted variants

As a guide, the following entries are already answered.
I4L ... 1.86
S11K ... 2
A18R ... 2.54
Q6F ... 2.15

Returns the measured protein stability index for the input variant. Input: S7M
1.65

Returns the measured protein stability index for the input variant. Input: A23P
1.91

Returns the measured protein stability index for the input variant. Input: V2Q
2.9

Returns the measured protein stability index for the input variant. Input: R21V
2.56

Returns the measured protein stability index for the input variant. Input: E10D
2.19
